The values you see were collected from ChEMBL document CHEMBL3739328.

Entries and their measured Ratio IC50 follow.
- Organism: Homo sapiens
- assay_procedure: Selectivity ratio of IC50 for adrenergic alpha1B receptor (unknown origin) to IC50 for adrenergic alpha1A receptor (unknown origin)
measure_name: Ratio IC50

1. O=C1c2ccccc2C(=O)N1Cc1ccc(CCN2CCN(c3ccccn3)CC2)cc1	0.3
2. O=C1c2ccccc2C(=O)N1Cc1ccc(CCN2CCN(c3ccc(C(F)(F)F)cc3)CC2)cc1	0.3
3. Cc1ccc(N2CCN(CCc3ccc(CN4C(=O)c5ccccc5C4=O)cc3)CC2)cc1	14.2
4. N#Cc1ccccc1N1CCN(CCc2ccc(CN3C(=O)c4ccccc4C3=O)cc2)CC1	5
5. O=C1c2ccccc2C(=O)N1Cc1ccc(CCN2CCN(c3ccccc3F)CC2)cc1	19.5
6. O=C1c2ccccc2C(=O)N1Cc1ccc(CCN2CCN(c3ccc(F)cc3F)CC2)cc1	8.8
7. O=C1c2ccccc2C(=O)N1Cc1ccc(CCN2CCN(c3ccc(Br)cc3)CC2)cc1	0.3
8. Cc1ccccc1N1CCN(CCc2ccc(CN3C(=O)c4ccccc4C3=O)cc2)CC1	4.2
9. O=C1c2ccccc2C(=O)N1Cc1ccc(CCN2CCN(Cc3ccccc3)CC2)cc1	0.8
10. COc1ccc(N2CCN(CCc3ccc(CN4C(=O)c5ccccc5C4=O)cc3)CC2)cc1	0.5
11. CCOc1ccccc1N1CCN(CCc2ccc(CN3C(=O)c4ccccc4C3=O)cc2)CC1	13.4
12. Cc1ccc(Cl)cc1N1CCN(CCc2ccc(CN3C(=O)c4ccccc4C3=O)cc2)CC1	0.9
13. O=C1c2ccccc2C(=O)N1Cc1ccc(CCN2CCN(c3ccc(Cl)cc3)CC2)cc1	1.4
14. N#Cc1ccc(N2CCN(CCc3ccc(CN4C(=O)c5ccccc5C4=O)cc3)CC2)c(F)c1	0.3
15. CC(=O)c1ccc(N2CCN(CCc3ccc(CN4C(=O)c5ccccc5C4=O)cc3)CC2)cc1	8.6
16. O=C1c2ccccc2C(=O)N1Cc1ccc(CCN2CCN(c3ccc(F)cc3)CC2)cc1	3
17. COc1ccccc1N1CCN(CCc2ccc(CN3C(=O)c4ccccc4C3=O)cc2)CC1	3.3
18. CS(=O)(=O)c1ccccc1N1CCN(CCc2ccc(CN3C(=O)c4ccccc4C3=O)cc2)CC1	4.3
19. O=C1c2ccccc2C(=O)N1Cc1ccc(CCN2CCN(c3ccccc3Cl)CC2)cc1	51.5
20. O=C1c2ccccc2C(=O)N1Cc1ccc(CCN2CCN(c3ccccc3C(F)(F)F)CC2)cc1	0.7
21. N#Cc1ccc(N2CCN(CCc3ccc(CN4C(=O)c5ccccc5C4=O)cc3)CC2)cc1	8.6
22. O=C1c2ccccc2C(=O)N1Cc1ccc(CCN2CCN(c3ccccc3)CC2)cc1	5.8
